# Test system: Tobacco mosaic virus
# experimentalDetails: In vivo antiviral activity against Tobacco mosaic virus strain U1 (TMV) infected left side of Nicotiana glutinosa leaves assessed as decrease in local lesion numbers at 5 uM co-incubated with virus for 30 min before inoculation onto leaves measured at 3-4 days after viral challenge by half-leaf method
# Format: functional
# maps each entry to its inhibition in vivo at 5 µM

Some entries whose results are on file:
molecule | inhibition in vivo at 5 µM
COC(=O)[C@]12OC[C@]34[C@H]([C@@H](O)[C@@H]1O)[C@@]1(C)CC(=O)C(O[C@@H]5O[C@H](CO)[C@@H](O)[C@H](O)[C@H]5O)=C(C)[C@@H]1C[C@H]3OC(=O)[C@H](OC(C)=O)[C@@H]24 [YADANZIOSIDE I] | 54.9%
CNCC(=O)N[C@@H](CO)C(=O)N[C@H]1[C@H](O)[C@@H](O)[C@H](n2ccc(N)nc2=O)O[C@@H]1C(N)=O | 46.6%
COC(=O)[C@]12OC[C@]34[C@H]([C@@H](O)[C@@H]1O)[C@@]1(C)CC(=O)C(O)=C(C)[C@@H]1C[C@H]3OC(=O)[C@H](OC(=O)C=C(C)C)[C@@H]24 | 64.7%
CC1=CC(=O)[C@@H](O)[C@]2(C)[C@H]3[C@@H](O)[C@H](O)[C@]4(CO)OC[C@@]35[C@@H](C[C@@H]12)OC(=O)[C@H](O)[C@]54O [YADANZIOLIDE A] | 46.1%

// below: inhibition in vivo at 5 µM requested for another molecule
Ask: // lookup inhibition in vivo at 5 µM | system=Tobacco mosaic virus | key= COC(=O)[C@]12OC[C@]34[C@H]([C@@H](O)[C@@H]1O)[C@@]1(C)[C@H](O)[C@@H](O)C=C(C)[C@@H]1C[C@H]3OC(=O)[C@H](OC(C)=O)[C@@H]24 [YADANZIOSIDE D]
Reply: 48.4%
